System: Serum
Experiment: Metabolic stability in human serum up to 8 hrs by HPLC analysis
Format: ADME, cell-free
readoutName: Stability

- smilesRecord: "CC(C)OC(=O)c1sc2c([N+](=O)[O-])c(O)c(O)cc2c1Cl"
  reportedResult: "Stable"
- smilesRecord: "CCCCOC(=O)c1sc2c([N+](=O)[O-])c(O)c(O)cc2c1Cl"
  reportedResult: "Stable"
- smilesRecord: "O=C(OCc1ccccc1)c1sc2c([N+](=O)[O-])c(O)c(O)cc2c1Cl"
  reportedResult: "Stable"
- smilesRecord: "CCCOC(=O)c1sc2c([N+](=O)[O-])c(O)c(O)cc2c1Cl"
  reportedResult: "Stable"
- smilesRecord: "COC(=O)c1sc2c([N+](=O)[O-])c(O)c(O)cc2c1Cl"
  reportedResult: "Stable"

----------
Experiment: Chemical stability in phosphate buffer assessed as hydrolysis half life at pH 7.4 by HPLC analysis
Type: physicochemical
readoutName: log10(half-life) (log10 of the value in h)

- compound: "CC(OC(=O)c1sc2c([N+](=O)[O-])c(O)c(O)cc2c1Cl)OC(=O)C(C)C (configuration not stated)"
  log10(half-life): 1.68
- compound: "CCCC(=O)OCOC(=O)c1sc2c([N+](=O)[O-])c(O)c(O)cc2c1Cl"
  log10(half-life): 0.40
- compound: "O=C(OCc1ccccc1)c1sc2c([N+](=O)[O-])c(O)c(O)cc2c1Cl"
  log10(half-life): 1.33
- compound: "CC(C)C(N)C(=O)OCOC(=O)c1sc2c([N+](=O)[O-])c(O)c(O)cc2c1Cl (configuration not stated)"
  log10(half-life): 0.30
- compound: "CC(C)C(=O)OCOC(=O)c1sc2c([N+](=O)[O-])c(O)c(O)cc2c1Cl"
  log10(half-life): 0.88
- compound: "CCCC(=O)OC(C)OC(=O)c1sc2c([N+](=O)[O-])c(O)c(O)cc2c1Cl (configuration not stated)"
  log10(half-life): 0.65
- compound: "O=C(OCc1coc(=O)o1)c1sc2c([N+](=O)[O-])c(O)c(O)cc2c1Cl"
  log10(half-life): 1.07
